TESTED ON: bovine GRK5 (Bos taurus)
Construct: when using full-length kinases as the receptor[37] instead of isolated kinase domains; made in house
Sequence (P43249 whole entry, the tested form may be a part): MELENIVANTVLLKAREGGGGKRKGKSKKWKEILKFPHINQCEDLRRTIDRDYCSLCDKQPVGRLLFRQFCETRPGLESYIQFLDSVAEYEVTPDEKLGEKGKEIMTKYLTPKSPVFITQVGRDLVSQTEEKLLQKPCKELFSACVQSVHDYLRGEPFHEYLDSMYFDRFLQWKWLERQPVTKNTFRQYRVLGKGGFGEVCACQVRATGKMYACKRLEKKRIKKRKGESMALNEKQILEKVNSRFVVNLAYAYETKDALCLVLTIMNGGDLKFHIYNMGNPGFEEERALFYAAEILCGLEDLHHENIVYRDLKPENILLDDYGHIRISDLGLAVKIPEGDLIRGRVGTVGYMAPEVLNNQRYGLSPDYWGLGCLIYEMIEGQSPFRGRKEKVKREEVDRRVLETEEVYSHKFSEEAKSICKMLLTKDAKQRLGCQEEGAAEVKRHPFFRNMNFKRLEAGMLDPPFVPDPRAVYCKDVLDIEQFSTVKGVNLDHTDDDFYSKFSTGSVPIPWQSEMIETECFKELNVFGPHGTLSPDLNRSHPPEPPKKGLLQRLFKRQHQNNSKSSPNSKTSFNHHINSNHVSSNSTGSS
ASSAY METHOD TEXT: Primary DSF inhibitor screen, GRK5
Format: binding
CONDITION DETAILS: 10 μM compound, 2 μM kinase, relative to DMSO control; read-out: ΔTm, primary screen, GRK5
EXPERIMENTAL READOUT: ΔTm at 10 µM (°C)
Give bare numbers, in °C.

> print(dat)
                                   compound                 tested.on  recorded.value
1  Nc1nc(-c2ccc(F)cc2)c(-c2ccc3ncccc3n2)s1 [GW785804X]  bovine GRK5 (Bos taurus)            3.16
2  CC1=C(C(=O)Nc2cc(Cl)c3[nH]ncc3c2)C(c2ccc(C(F)(F)F)cc2)CC(=O)N1 (stereo not shown) [GSK466317A]  bovine GRK5 (Bos taurus)            3.48
3  O=c1c(O)c(-c2ccc(O)c(O)c2)oc2cc(O)cc(O)c12 [Quercetin, 3,3',4',5,7-Pentahydroxyflavone]  bovine GRK5 (Bos taurus)            10.6
4  CS(=O)(=O)CCNCc1ccc(-c2ccc3ncnc(Nc4ccc(OCc5ccccc5)c(Cl)c4)c3c2)o1 [GW574783B]  bovine GRK5 (Bos taurus)            4.25
5  CN[C@@H]1C[C@H]2O[C@@](C)([C@@H]1OC)n1c3ccccc3c3c4c(c5c6ccccc6n2c5c31)C(=O)NC4 [Staurosporine]  bovine GRK5 (Bos taurus)            11.9
6  COC(=O)Nc1nc2ccc(Sc3ccc(NC(=O)Nc4cc(C(F)(F)F)ccc4F)cc3)cc2[nH]1 [GW607049C]  bovine GRK5 (Bos taurus)            3.59

Okay, next one:
Exam item: Which value of ΔTm at 10 µM has been reported for CC(C)COC(=O)c1ccc2c(c1)/C(=C/Nc1ccc(S(N)(=O)=O)cc1)C(=O)N2 [GW416981X] in the records?
Marked response: 6.71

---

Task for the reader: assign each of the following molecules its reported ΔTm, primary screen, GRK5.
TESTED ON: bovine GRK5 (Bos taurus)
Construct: when using full-length kinases as the receptor[37] instead of isolated kinase domains; made in house
ASSAY METHOD TEXT: Primary DSF inhibitor screen, GRK5
Assay type: binding
CONDITION DETAILS: 10 μM compound, 2 μM kinase, relative to DMSO control

> print(dat)
                        molecule       experimental.readout  recorded.value
1  O=C1Nc2ccccc2/C1=C\c1cnc[nH]1  ΔTm, primary screen, GRK5          4.8 °C

Could I get ΔTm, primary screen, GRK5 for every one of these entries?
1. CN[C@@H]1C[C@H]2O[C@@](C)([C@@H]1OC)n1c3ccccc3c3c4c(c5c6ccccc6n2c5c31)C(=O)NC4
2. CCCN1CCC(Oc2cc(Nc3nc(Nc4cccc(F)c4C(N)=O)c4cc[nH]c4n3)c(OC)cc2Cl)CC1 [GSK1713088A]

Marked response:
1: 12 °C; 2: 7.4 °C

Could I get ΔTm, primary screen, GRK5 for every one of these entries?
1. Nc1cc2ncnc(Nc3cccc(Br)c3)c2cc1N
2. O=C1NC(=NCc2cccs2)S/C1=C\c1ccc2ncccc2c1
3. O=C1NC(=O)/C(=C/c2ccc(-c3nc4ccccc4s3)o2)S1
4. CN(c1ccc(NC(=O)Nc2ccc(OC(F)(F)F)cc2)cc1)c1ccnc(Nc2cccc(S(N)(=O)=O)c2)n1 [GW806742X]

Marked response:
6.16 °C
5.48 °C
2.87 °C
6.5 °C

Exam item: Which value of ΔTm, primary screen, GRK5 has been reported for COc1cc2c(cc1Nc1nc(Nc3ccsc3C(N)=O)c3cc[nH]c3n1)N(C(=O)CN(C)C)CCC2(C)C [GSK2163632A] in the records?
Marked response: 9.2 °C

This collection of values is drawn from paper PMC4301037.
